Reference source for all entries: ChEMBL document CHEMBL1909507

Entries and their measured pIC50 follow.
# Test system: L1210
# measurement-description: Antiproliferative activity against mouse L1210 after 48 hrs by SRB assay
# Assay type: functional, cell-based
# conditions: L1210, 48 h
pIC50: −log10 of the molar value.
value-kind: pIC50

{"molecule-smiles": "O=C1NCCN1c1ccc(S(=O)(=O)Nc2cccc(Cl)c2)cc1", "target-or-system": "L1210", "value-kind": "pIC50", "measured-value": 7.11}
{"molecule-smiles": "Cc1cccc(NS(=O)(=O)c2ccc(N3CCNC3=O)cc2)c1", "target-or-system": "L1210", "value-kind": "pIC50", "measured-value": 6.74}
{"molecule-smiles": "O=C1NCCN1c1ccc(S(=O)(=O)Nc2ccc3[nH]ccc3c2)cc1", "target-or-system": "L1210", "value-kind": "pIC50", "measured-value": 6.59}
{"molecule-smiles": "CCc1cccc(NS(=O)(=O)c2ccc(N3CCNC3=O)cc2)c1", "target-or-system": "L1210", "value-kind": "pIC50", "measured-value": 6.70}
{"molecule-smiles": "COc1cccc(NS(=O)(=O)c2ccc(N3CCNC3=O)cc2)c1", "target-or-system": "L1210", "value-kind": "pIC50", "measured-value": 6.62}
{"molecule-smiles": "Cc1cc(C)cc(NS(=O)(=O)c2ccc(N3CCNC3=O)cc2)c1", "target-or-system": "L1210", "value-kind": "pIC50", "measured-value": 6.96}
